Tested on: CCRF-CEM
Experiment: NCI-60 anticancer screen (SRB; single dose 10 μM and five doses)
Protocol Conditions: Homo sapiens, 48 h, read-out: Growth Percentage
Test Readout: activity at 10 µM (%)

1) Cc1[nH]c(=S)sc1C(=O)/C=C/c1ccc(F)cc1 [2c] :: -0.21
2) Cc1[nH]c(=S)sc1C(=O)/C=C/c1ccccc1 [2a] :: 37.2
3) Cc1[nH]c(=S)sc1C(=O)/C=C/c1ccc(Br)cc1 [2g] :: -11
4) Cc1[nH]c(=S)sc1C(=O)/C=C/c1cccc(F)c1 [2b] :: 15.4
5) Cc1[nH]c(=S)sc1C(=O)/C=C/c1ccccc1Cl [2d] :: 46.8
6) COc1ccc(/C=C/C(=O)c2sc(=S)[nH]c2C)c(OC)c1 [2n] :: 53.7
7) COc1ccc(/C=C/C(=O)c2sc(=S)[nH]c2C)cc1 [2l] :: 59
8) COc1cc(/C=C/C(=O)c2sc(=S)[nH]c2C)cc(OC)c1OC [2p] :: 4.92
9) COc1cccc(/C=C/C(=O)c2sc(=S)[nH]c2C)c1OC [2m] :: 12.4
10) Cc1[nH]c(=S)sc1C(=O)/C=C/c1ccc(Cl)cc1 [2f] :: 3.18
11) Cc1[nH]c(=S)sc1C(=O)/C=C/c1cccc(Cl)c1 [2e] :: 15.2

Origin of values: paper PMC11435058
